Taken from patent US20240309087A1.

Measured EC50, CD112R/CD112 reporter values are reported for all entries that follow.
Molecular target: T1, human CD112R on Jurkat CD112R effector cells (human, UniProt Q6DKI7 1-326)
T1 sequence (looked up): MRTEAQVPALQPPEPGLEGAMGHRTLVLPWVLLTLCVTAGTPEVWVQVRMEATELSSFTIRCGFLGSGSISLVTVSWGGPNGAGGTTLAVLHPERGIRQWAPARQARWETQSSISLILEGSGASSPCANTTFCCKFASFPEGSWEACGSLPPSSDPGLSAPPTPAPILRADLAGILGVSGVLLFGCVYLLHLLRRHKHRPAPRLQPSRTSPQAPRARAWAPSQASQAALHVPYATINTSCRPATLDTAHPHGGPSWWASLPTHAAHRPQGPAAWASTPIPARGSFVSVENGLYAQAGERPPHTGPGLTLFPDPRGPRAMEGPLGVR
Assay: cell-based or functional assay
Readout label: EC50, CD112R/CD112 reporter (µg/mL)

| Binder | Units symbol | Val |
| --- | --- | --- |
| Hu35 (antibody, IgG4, V domains shown, humanized IgG4) VH: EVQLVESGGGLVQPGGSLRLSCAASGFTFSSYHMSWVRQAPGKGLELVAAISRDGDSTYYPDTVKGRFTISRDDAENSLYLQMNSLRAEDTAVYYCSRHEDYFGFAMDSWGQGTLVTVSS VL: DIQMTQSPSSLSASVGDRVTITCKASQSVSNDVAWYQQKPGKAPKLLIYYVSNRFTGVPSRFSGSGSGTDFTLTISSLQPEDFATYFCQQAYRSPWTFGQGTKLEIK | µg/mL | 0.031 |
| Hu48 (antibody, IgG4, V domains shown) VH: EVQLVESGGGLVKPGGSLRLSCAASGFTFSSYHMSWVRQAPGKGLELVSAINSNVISTYYLDTVKGRFTISRDNAKNSLYLQMNSLRAEDTAVYYCARHEDYYGFAMDYWGQGTLVTVSS VL: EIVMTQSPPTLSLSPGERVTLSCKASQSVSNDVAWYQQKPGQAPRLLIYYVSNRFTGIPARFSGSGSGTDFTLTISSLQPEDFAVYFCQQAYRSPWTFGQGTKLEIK | µg/mL | 0.0421 |
